Sourced from ChEMBL document CHEMBL2311321

Would you mind telling me the reported inhibition at 1 µM of each entry?
assay: Inhibition of melanogenesis in mouse B16-4A5 cells at 1 uM after 72 hrs by spectrophotometry; format: functional; conditions: B16-4A5, 72 h
Please respond with the number in % and leave the unit unwritten.

Q) Which inhibition at 1 µM reading was recorded for the compound COc1cc2c3c(cc4ccccc4c3c1OC)N(C)CC2 [DEHYDRONUCIFERINE] ?
A) 14.5

Q) Consider the compound COc1cc2c(cc1OC)C(Cc1ccc(O)cc1)N(C)CC2 (racemic) and give its measured inhibition at 1 µM.
A) 7.5

Q) So what does the record say about inhibition at 1 µM for `COc1c(O)cc2c3c(cc4ccccc4c13)N(C)CC2` ?
A) 10.9

Q) Suppose we examine the compound COc1cc2c3c(c1OC)-c1ccccc1C[C@H]3[N+](C)([O-])CC2 (some centres undefined) ; what inhibition at 1 µM value has been reported?
A) -4.8

###

test: Inhibition of melanogenesis in mouse B16-4A5 cells at 10 uM after 72 hrs by spectrophotometry; format: functional; details: B16-4A5, 72 h
Provide the recorded inhibition at 10 µM for the entries that follow.
Numeric answer only, unit % assumed.

Q) Need inhibition at 10 µM, item `COc1c(O)cc2c3c1-c1ccccc1C[C@@H]3NCC2`
A) 12.1

Q) Tell me the measured inhibition at 10 µM of `COc1cc2c3c(c1OC)C1(C=CC(=O)C=C1)C[C@H]3N(C)CC2` , please.
A) 18.3

Q) Form field: reported inhibition at 10 µM of `COc1cc2c3c(c1OC)-c1ccccc1C[C@H]3NCC2`
A) 12.1

Q) Which inhibition at 10 µM reading was recorded for the molecule `COc1cc2ccnc3c2c(c1OC)-c1ccccc1C3=O` ?
A) -1.5

Q) Entry COc1cc2c3c(c1OC)-c1ccccc1C[C@H]3[N+](C)([O-])CC2 (stereo not given in full) has what inhibition at 10 µM?
A) -0.1

###

I'd appreciate it if you could supply inhibition at 100 µM values for the items below.
assay: Inhibition of melanogenesis in mouse B16-4A5 cells at 100 uM after 72 hrs by spectrophotometry; format: functional; conditions: B16-4A5, 72 h
Put your answer as a value accompanied by its unit after it.

Q) Entry under review: COc1cc2c(cc1OC)C(Cc1ccc(O)cc1)N(C)CC2 (racemic) . Reported inhibition at 100 µM?
A) 80.3%

Q) What value of measured inhibition at 100 µM is listed for `COc1c(O)cc2c3c(cc4ccccc4c13)N(C)CC2` ?
A) 78.7%

Q) Sample COc1cc2c3c(cc4ccccc4c3c1OC)N(C)CC2 [DEHYDRONUCIFERINE] — what was its inhibition at 100 µM?
A) 78.4%
